# System: Histoplasma capsulatum
# Assay type: cell-based
Known MIC H. capsulatum GS20 of a selection of molecules

[
  {
    "smiles.representation": "CC[C@H]1O[C@@H](/C(C)=C/[C@H](C)/C=C/[C@H]2[C@@H](C)[C@@H]2/C=C/[C@@H]2O[C@H](CC(=O)O)C[C@H](N(C)Cc3ncc[nH]3)[C@H]2O)CC=C1C",
    "MIC H. capsulatum GS20": "<0.19 µg/mL"
  },
  {
    "smiles.representation": "CC[C@H]1O[C@@H](/C(C)=C/[C@H](C)/C=C/[C@H]2[C@@H](C)[C@@H]2/C=C/[C@@H]2O[C@H](CC(=O)O)C[C@H](N(C)CCO)[C@H]2O)CC=C1C",
    "MIC H. capsulatum GS20": "<0.19 µg/mL"
  },
  {
    "smiles.representation": "CC[C@H]1O[C@@H](/C(C)=C/[C@H](C)/C=C/[C@H]2[C@@H](C)[C@@H]2/C=C/[C@@H]2O[C@H](CCO)C[C@H](N(C)C)[C@H]2O)CC=C1C",
    "MIC H. capsulatum GS20": "<0.19 µg/mL"
  },
  {
    "smiles.representation": "CC[C@H]1O[C@@H](/C(C)=C/[C@H](C)/C=C/[C@H]2[C@@H](C)[C@@H]2/C=C/[C@@H]2O[C@H](CC(=O)O)C[C@H](N(CC)CC)[C@H]2O)CC=C1C",
    "MIC H. capsulatum GS20": "<0.19 µg/mL"
  },
  {
    "smiles.representation": "CC[C@H]1O[C@@H](/C(C)=C/[C@H](C)/C=C/[C@H]2[C@@H](C)[C@@H]2/C=C/[C@@H]2O[C@H](CCO)C[C@H](N(C)CCO)[C@H]2O)CC=C1C",
    "MIC H. capsulatum GS20": "<0.19 µg/mL"
  },
  {
    "smiles.representation": "CC[C@H]1O[C@@H](/C(C)=C/[C@H](C)/C=C/[C@H]2[C@@H](C)[C@@H]2/C=C/[C@@H]2O[C@H](CCO)C[C@H](N(C)C(C)C)[C@H]2O)CC=C1C",
    "MIC H. capsulatum GS20": "<0.19 µg/mL"
  },
  {
    "smiles.representation": "CC[C@H]1O[C@@H](/C(C)=C/[C@H](C)/C=C/[C@H]2[C@@H](C)[C@@H]2/C=C/[C@@H]2O[C@H](CC(=O)O)C[C@H](N(C)C(C)C)[C@H]2O)CC=C1C",
    "MIC H. capsulatum GS20": "<0.19 µg/mL"
  },
  {
    "smiles.representation": "CCN[C@H]1C[C@@H](CC(=O)O)O[C@@H](/C=C/[C@H]2[C@H](C)[C@@H]2/C=C/[C@@H](C)/C=C(\\C)[C@H]2CC=C(C)[C@@H](CC)O2)[C@@H]1O",
    "MIC H. capsulatum GS20": "<0.19 µg/mL"
  },
  {
    "smiles.representation": "CC[C@H]1O[C@@H](/C(C)=C/[C@H](C)/C=C/[C@H]2[C@@H](C)[C@@H]2/C=C/[C@@H]2O[C@H](CC(=O)O)C[C@H](NC(C)C)[C@H]2O)CC=C1C",
    "MIC H. capsulatum GS20": "<0.19 µg/mL"
  },
  {
    "smiles.representation": "CC[C@H]1O[C@@H](/C(C)=C/[C@H](C)/C=C/[C@H]2[C@@H](C)[C@@H]2/C=C/[C@@H]2O[C@H](CC(=O)O)C[C@H](NC3CCCC3)[C@H]2O)CC=C1C",
    "MIC H. capsulatum GS20": "<0.19 µg/mL"
  },
  {
    "smiles.representation": "CCCN(C)[C@H]1C[C@@H](CC(=O)O)O[C@@H](/C=C/[C@H]2[C@H](C)[C@@H]2/C=C/[C@@H](C)/C=C(\\C)[C@H]2CC=C(C)[C@@H](CC)O2)[C@@H]1O",
    "MIC H. capsulatum GS20": "<0.19 µg/mL"
  },
  {
    "smiles.representation": "CCCCN(C)[C@H]1C[C@@H](CC(=O)O)O[C@@H](/C=C/[C@H]2[C@H](C)[C@@H]2/C=C/[C@@H](C)/C=C(\\C)[C@H]2CC=C(C)[C@@H](CC)O2)[C@@H]1O",
    "MIC H. capsulatum GS20": "<0.19 µg/mL"
  }
]
